- Tested on: MDA-MB-468 breast
- procedure_summary: NCI-60 one-dose screen, 48 h (100 = growth as untreated, 0 = no growth, -100 = all killed)
- measurement_parameters: 10 µM unless noted
This is part of a sample that, as a whole, favours compounds with a hit. Of some 83,000 tested, about 20% had one in any assay.
growth values by entry
Unit % implied. Number only.

compound=O=C1OCC/C1=C\OCCCO/C=C1\CCOC1=O reported=92.8

Please look up its growth: C=C(C)[C@@H]1CC[C@@]2(C(=O)O)CC[C@]3(C)C(CCC4[C@@]5(C)CCC(OS(=O)(=O)c6ccccc6)C(C)(C)C5CC[C@]43C)C12 (stereo not given in full)
53.9

Please look up its growth: O=C(Nc1cc(=O)[nH]c(=O)[nH]1)C(Cl)Cl
98.5

Please look up its growth: CCOC(=O)c1nn(C2CCCCO2)c2ccc(NC(=O)CN3CCCC3)cc12 (stereo not given)
111
